System: HOP-92 NSCLC
Test: NCI tumour cell line growth inhibition, 48 h; in the data active = GI50 below about 0.43 µM; inactive = the rest
Labels: active, inactive

> print(dat)
                                    compound     label
 1  N=C(N)c1ccc(-c2ccc(-c3ccc(Cl)cc3Cl)s2)cc1  inactive
 2  CNCCN=c1ccc2c3c1c(O)c1c(O)ccc(=O)c1c3[nH]n2CCNCCO    active
 3  CC(C)(C)c1ccc(NS(=O)(=O)c2ccc3nc(NC(=O)c4cnccn4)[nH]c3c2)cc1  inactive
 4  O=C1C(Cl)=C(Nc2cccc(O)c2)C(=O)N1Cc1ccc(Cl)cc1Cl  inactive
 5  CCCCCn1c(C)cc(/C=C\c2ccc3cc(C)ccc3[n+]2C)c1C    active
 6  Cc1ccc([C@]2(C)CC[C@H](C)/C2=C\Br)c(O)c1  inactive
 7                 Oc1ccc(N=Nc2ccccn2)c(O)c1  inactive
 8  C[C@@H](Nc1nc(Nc2ccc(F)c(Cl)c2)nc2ccccc12)C1CC1  inactive
 9                CN(C)/N=N/c1nc[nH]c1C(N)=O  inactive
10  COC(=O)C(C)NC(=O)c1ccccc1I(OS(=O)(=O)C(F)(F)F)c1ccccc1 (stereo unspecified)  inactive
11  CS(=O)(=O)N(c1cc(-c2ccc3ncnc(Nc4cccc(Cl)c4)c3c2)cnc1Cl)S(C)(=O)=O    active

* * *

Tested on: SK-MEL-2 melanoma
Experiment: NCI tumour cell line growth inhibition, 48 h
outcome.measure: TGI

> print(dat)
                                    compound  value.reported
 1  CCCCCCCCCCCCCCCCCC(=O)Nc1ccn(C2OC(CO)C(O)C2O)c(=O)n1 (stereo not given)        > 100 µM
 2    CC1(C)N=C(c2ccccn2)C(c2ccccn2)=NC1(C)C        > 100 µM
 3  O=C(N/N=C/c1cc(Br)cc(Br)c1[O-])c1ccccc1O.O=C(N/N=C/c1cc(Br)cc(Br)c1[O-])c1ccccc1O.[Ni+2]          1.3 µM
 4  N#CC1C=Cc2c(ccc3ccccc23)N1C(=O)c1ccccc1 (stereo not given)       > 60.7 µM
 5  CCOC(=O)[C@@H]1ON2OC(OC3CCCC3(c3ccccc3)c3ccccc3)C(OC(C)=O)[C@H]3OC(=O)[C@@H]1C32 (stereo not given in full)        > 100 µM
 6  Nc1c(C(=O)Nc2cccc(Cl)c2Cl)sc2nc3c(cc12)C(=O)CCC3        > 100 µM
 7       O=C(O)/C(=C\c1ccncc1)c1cccc2ccccc12        > 100 µM
 8  CC(=O)c1c2n(n(-c3ccccc3)c1=O)C(=O)c1nccnc1-2        > 100 µM
 9  N=C(N)c1ccc(-c2ccc(-c3ccc(Cl)c(Cl)c3)s2)nc1         15.2 µM
10      O=C(O)c1cc2ccccc2c2c1C(=O)c1ccccc1-2        > 100 µM

* * *

System: SK-OV-3 ovarian
Assay: NCI tumour cell line growth inhibition, 48 h
// reported TGI for each item listed
outcome.measure: TGI (µM)

> print(dat)
                                   compound  qual  value.reported
1  Cc1coc2c1C(OC(=O)C(C)C)C1(C)C(C)CCC(O)C1C2=O (stereo not given)     >             100
2  CC1(C)C(=O)/C(=C\c2cccnc2)C[C@]2(C)[C@H]3CC[C@@H]4[C@@H](C(=O)/C=C/c5ccncc5)CC[C@@]4(C)[C@]3(C)CC[C@@H]12     =            18.9
3     CN(C)CC/C(=N\Nc1ccc(Cl)cc1Cl)c1ccccc1     =            24.8
4    CCN(CC)c1ccc(/C=C/C=C2\NC(=O)NC2=O)cc1     >             100
5  CCSc1ccc(C2C(Br)C(=O)N2c2cc(OC)c(OC)c(OC)c2)cc1 (stereo not given)     >             100

* * *

// values below are reported TGI
Test system: MOLT-4 leukemia
Test: NCI tumour cell line growth inhibition, 48 h
outcome.measure: TGI (µM)

> print(dat)
                                   compound  qual  value.reported
1  CCC[CH2][Sn]1([CH2]CCC)[O]CC(C)[O]1 (stereo not drawn)     =               3
2  O=S1Nc2c(Cl)cc(Cl)c(Cl)c2S1 (stereo not drawn)     >             100
3  CC(O)c1cc(C(=O)N[C@@H](C)Cn2ccc(-c3ccc(C#N)c(Cl)c3)n2)n[nH]1 (stereo partly drawn)     =            5.15

* * *

System: SW-620 colon
Test: NCI tumour cell line growth inhibition, 48 h
Property: log10(TGI); scope: individual molecules
outcome.measure: log10(TGI) (log10 of the value in µM)

> print(dat)
                                   molecule  value.reported
1  Cc1ccc(Sc2cc3c(oc2=O)-c2ccccc2OC3O)cc1 (stereo not given)            1.72
2  OCCN1CCN(CC/C=C2/c3ccccc3Sc3ccc(Cl)cc32)CC1            1.39
3  COc1c(B(O)O)cc(F)cc1-c1nc2ccc3[nH]ncc3c2c2c1CCCC2            1.05
4  COc1ccc2nc3cc(Cl)ccc3c(NCCNc3c4ccc(Cl)cc4nc4ccc(OC)cc34)c2c1            0.47
5  c1ccc(CN2CCN3CCN(CC2)CCN(Cc2ccccc2)CC3)cc1            1.80
6     CN(C)CC/C(=N\Nc1ccc(Cl)cc1Cl)c1ccccc1            1.47
7  Fc1cc(-c2cc(-c3ccc4c(c3)OCO4)n[nH]2)c(Cl)cc1Cl            1.46

* * *

Tested on: HCT-15 colon
Experiment: NCI tumour cell line growth inhibition, 48 h
outcome.measure: TGI

> print(dat)
                                   molecule  value.reported
1  Cn1c(=O)c2/c(n(C)c1=O)=N\C=c1\c(=O)n(C)c(=O)n(C)\c1=N\C=2        > 100 µM
2  Cc1ccc(Sc2cc3c(oc2=O)-c2ccccc2OC3O)cc1 (configuration not stated)         76.3 µM
3                            NCCCNCCCCN1CC1       > 33.2 µM
4  C[C@@H]1COCCN1c1cc(C2(O)C[C@H]3CC[C@@H](C2)O3)c2cnn(-c3ccn[nH]3)c2n1 (some centres not stated)       > 42.2 µM
5      O=C(O)c1cc2ccccc2c2c1C(=O)c1ccccc1-2        > 100 µM
6  C=C(c1ccccc1)c1ccccc1-c1cc(-c2ccccc2)cc(-c2ccccc2)n1        > 100 µM
7  C=C1C(=O)OC2CC3(C)OC3CC/C(C)=C/C(OC(C)=O)C12 (configuration not stated)         19.3 µM

* * *

Tested on: MCF7 breast
Assay: NCI tumour cell line growth inhibition, 48 h; in the data active means GI50 below about 0.43 µM; inactive means the rest
Classes used: active, inactive

> print(dat)
                                   compound     label
1      CCN(Cc1c(Cl)cccc1Cl)c1ccc(CO)c(Cl)c1    active
2  CCCCCn1c(C)cc(/C=C\c2ccc3cc(C)ccc3[n+]2C)c1C    active
3     O=C(CCc1ccc(O)cc1)N/N=C/c1cc(Br)ccc1O  inactive
4          CN(C)CCCn1c(-c2nonc2N)nc2cnccc21  inactive
5  C=CC(COC(c1ccccc1)(c1ccccc1)c1ccccc1)N(CC)CC (stereo unspecified)  inactive
6  CC1=NN(c2nc(N)nc(/C=C\c3ccc([N+](=O)[O-])s3)n2)C(C)(C)C1  inactive

* * *

System: T-47D breast
Assay: NCI tumour cell line growth inhibition, 48 h

molecule	TGI
CN(C)CCCn1c(-c2nonc2N)nc2cnccc21	> 25 µM
C/C=C(/C)C(=O)O[C@H]1[C@H](O)CC(c2ccc3c(c2O)C(O)=C2C(=O)C4(OC)C(O)=C(C(N)=O)C(=O)[C@H](CC(=O)c5ccccc5O)C4CC2[C@@]3(C)OC)O[C@@H]1C (some centres not stated)	8.06 µM
O=Nc1c(-c2c(O)[nH]c3ccc(Br)cc23)[nH]c2ccccc12	> 100 µM
CC(O)c1cc(C(=O)N[C@@H](C)Cn2ccc(-c3ccc(C#N)c(Cl)c3)n2)n[nH]1 (some centres not stated)	87.8 µM
O=C(/C=C\c1ccccc1)N1CCc2ccccc2C1	> 100 µM
COc1ccc2ccc3oc([N+](=O)[O-])cc3c2c1	> 100 µM
CC(=O)/C(=C/N1CCNC1=S)C(=O)Nc1ccccc1C	> 100 µM
C=CCC(C(=O)Nc1cccc2[nH]cnc12)C(=O)OCC (configuration not stated)	> 100 µM
Cc1ccc(-n2cc([Si](C)(C)C)nn2)s1	> 100 µM
COc1ccccc1C(=O)N(C)c1ccc(Cl)c(C(=O)OC(C)C)c1	85.7 µM
O=C(O)/C(=C\c1ccncc1)c1cccc2ccccc12	> 100 µM
C=C1CN(C2=NCCO2)C1	> 100 µM
CCOC(=O)/C=C(\C(=O)OCC)n1ccc(=O)[nH]c1=O	33.1 µM
Oc1c(CN2CCN(c3ccccc3)CC2)cc(Br)c2cccnc12	> 47.3 µM
Brc1ccc2c(-c3csc(-c4c[nH]c5ccccc45)n3)c[nH]c2c1	66.4 µM
O=C(O)c1cc2ccccc2c2c1C(=O)c1ccccc1-2	> 100 µM
Cc1c([N+](=O)[O-])oc2ccc3ccccc3c12	> 100 µM
COc1cc(Br)c(CC2C3=C(CCN2C(=O)C2CCC2)CC(=O)CC3)cc1O (configuration not stated)	71.8 µM
C[C@@H](Nc1nc(Nc2ccc(F)c(Cl)c2)nc2ccccc12)C1CC1	14 µM
O=C(O)C(Oc1nc(=S)[nH]c(=S)[nH]1)(c1ccc(Cl)cc1)c1ccc(Cl)cc1	> 100 µM
COc1ccc(-c2nn(-c3ccc(NC(=O)Nc4ccc(Cl)c(C(F)(F)F)c4)cc3)cc2-c2ccncc2)cc1Cl	7.73 µM
Cc1coc2c1C(OC(=O)C(C)C)C1(C)C(C)CCC(O)C1C2=O (configuration not stated)	> 100 µM
Cc1cccc(Cc2cnc(NC(=O)CCc3ccc(C)o3)s2)c1	> 100 µM
Cc1cn(S(=O)(=O)c2ccccc2)c2c(OCc3ccccc3)cc(NS(C)(=O)=O)cc12	39.4 µM
O=C(CSc1nc2ccccc2c(=O)n1-c1ccccc1)N=Nc1c(O)[nH]c2ccc(F)cc12	3.97 µM
O=C(O)C(=O)/C=C(\O)c1ccc(Br)cc1	> 100 µM
O=[N+]([O-])C(Cl)=C/C(=C(\Cl)SCc1ccccc1)[N+](=O)[O-]	40.2 µM
O=c1[nH]c(=S)c2cc3c(=S)[nH]c(=O)n(CCO)c3nc2n1CCO	> 100 µM
CC(C)(C)OC(=O)NCC(=O)N1CCN(C(=O)CNC(=O)OC(C)(C)C)CC1	> 100 µM
O=C(NC(=O)c1ccccc1[N+](=O)[O-])Nc1ccc(Oc2ncc(Cl)cn2)c(C(F)(F)F)c1	> 89.1 µM
CCN1CCC(O)(/C=C/c2ccc(OC)cc2)C(C(=O)/C=C/c2ccc(OC)cc2)C1 (configuration not stated)	24.1 µM
Cc1c(Cl)cccc1NC(=O)c1sc2nc3c(cc2c1N)CCCCC3	> 50 µM
Fc1cc(-c2cc(-c3ccc4c(c3)OCO4)n[nH]2)c(Cl)cc1Cl	7.79 µM
Cn1cc(C2=C(N3CCOCC3)C(=O)NC2=O)c2ccccc21	> 25 µM
CC(=O)c1c2n(n(-c3ccccc3)c1=O)C(=O)c1nccnc1-2	> 100 µM
CCN(c1cc(C#CCN2CCOCC2)cc(C(=O)NCc2c(C)cc(C)[nH]c2=O)c1C)C1CCC(N(C)CCOC)CC1 (configuration not stated)	> 100 µM
CC(C)(C)CC(C)(C)c1ccc(O)c(C[N+](C)(C)[O-])c1	> 100 µM
